experimental-system: T1, human GPRC5D (human, UniProt Q9NZD1 1-345)
T1 construct: whole, on cells; also called hGPRC5D; G-protein coupled receptor family C group 5 member D
T1 sequence (Q9NZD1 whole entry): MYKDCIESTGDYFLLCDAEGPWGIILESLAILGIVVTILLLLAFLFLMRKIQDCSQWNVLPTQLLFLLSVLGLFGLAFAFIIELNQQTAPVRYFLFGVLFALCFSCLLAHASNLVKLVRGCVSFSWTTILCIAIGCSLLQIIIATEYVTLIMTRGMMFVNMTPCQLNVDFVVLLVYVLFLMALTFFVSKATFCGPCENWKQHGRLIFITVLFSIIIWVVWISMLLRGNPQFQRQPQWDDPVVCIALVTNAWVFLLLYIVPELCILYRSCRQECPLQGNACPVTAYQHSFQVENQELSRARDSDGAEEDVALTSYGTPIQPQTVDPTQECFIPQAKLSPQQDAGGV
procedure-details: FACS, HEK293T-hGPRC5D cells
Examples of binders with documented MFI follow.
assay-readout: MFI

{"columns": ["binder", "assay-readout", "recorded-measurement"],
 "data": [
  ["26E2H6 (antibody, V domains shown, Mouse monoclonal antibody from hybridoma subclone) VH: EVQLVESGGDLVKPGGSLKLSCAASGFTFSSYGMSWVRQTPDKRLEWVATISSGGSYTYYPDSVKGRFTISRDNAKNTLYLQMSSLKSEDTAMYYCARHATDYWGQGTTLTVSS VL: QIVLTQSPAIMSASPGEKVTMTCSASSSVSYMHWYQQKSGTSPKRWIYDTSKLASGVPARFSGSGSGTSYSLTISSMEAEDAATYYCQQWSSNPLTFGAGTKLELK", "MFI", 27200],
  ["101B3G3 (antibody, V domains shown, Mouse monoclonal antibody from hybridoma subclone) VH: EVQLQQSGPELVKPGASMKISCKASGYSFTGYTMNWVKQSHGKNLEWIGLINPYNGGTRYNQKFKDKATLTVDKSSSTAYMELLSLTSEDSAVYYCARWLLRYAMDYWGQGTSVTVSS VL: DIVMTQSQKFMSTSVGDRVSITCKASQNVGNAVAWYQQKPGHSPKLLISSASNRKNGVPDRFTGSGSGTDFTLTVSNMQSEDLADYFCQQYSDSSWTFGGGTKLEIK", "MFI", 27100],
  ["98A3A8 (antibody, V domains shown, Mouse monoclonal antibody from hybridoma subclone) VH: EVQLQQSGPELVKPGASVKMSCKASGYTFTYYVTHWVRQKPGQGLEWIGYINPYNDGTMFNEKFKGKATLTSDKSSSTAYMEFSSLTSEDSAVFYCARGGVRRYFDVWGAGTTVTVSS VL: DIQMTQSPSSLSASLGERVSLTCRASQDIGSNLNWLQQKPDGTIKRLIYATSSLDSGVPKRFSGSRSGSDYSLTINSLESEDFVDYYCLQYASFPYTFGGGTKLEIK", "MFI", 2070]
]}
